Source: ChEMBL document CHEMBL1156829

The entries below come with measured EC50 values attached.
# System: Plasmodium falciparum
# procedureText: NOVARTIS: Inhibition of Plasmodium falciparum W2 (drug-resistant) proliferation in erythrocyte-based infection assay
# Assay type: functional, organism-based
# experimentalParameters: Plasmodium falciparum, W2; read-out: EC50
reportedMetric: EC50

- CCOc1ccc(C=NNC(=O)CCn2nnc3ccccc32)cc1: > 1.25 µM
- COc1ccc(C2N=C(N)N=C(N)N2c2ccc(C)cc2)cc1 (stereo not drawn): > 1.64 µM
- CN(C)c1ccc(C=CC=Cc2cccc[n+]2C)cc1: < 0.00847 µM
- CCOc1ccc2cc(C#N)c(SCC(=O)N3CC(=O)Nc4ccccc43)nc2c1: > 1.25 µM
- CON(C)C(=O)c1cccc2ccccc12: > 1.25 µM
- CC(C)COc1ccc(C(=O)N/C(=C/c2ccccc2)C(N)=O)cc1: > 0.617 µM
- CC[C@]1(C2OC(C3O[C@](O)(CO)[C@@H](C)C[C@H]3C)C[C@H]2C)CCC([C@@]2(C)CC[C@@]3(C[C@@H](O)[C@H](C)C([C@H](C)[C@H](OC)C(C)C(=O)O)O3)O2)O1 (stereo partly drawn): < 0.000868 µM
- COc1ccc(C2C3=C(O)CC(C)(C)CC3=Nc3[nH]nc(C)c32)cc1 (stereo not drawn): > 12.5 µM

###

# System: Plasmodium falciparum
# procedureText: NOVARTIS: Inhibition of Plasmodium falciparum W2 (drug-resistant) proliferation in erythrocyte-based infection assay
# Type: functional, organism-based
# experimentalParameters: Plasmodium falciparum, W2; read-out: EC50
pEC50: −log10 of the molar value.
The entries below come with measured pEC50 values attached.
reportedMetric: pEC50

* O=C(CSc1ccc2nnc(-c3cccc(F)c3)n2n1)Nc1ccc2c(c1)OCO2 | 6.09
* O=C(Nc1ccc(-c2cc(-c3ccccc3)nc(-c3ccc(NC(=O)c4cccc([N+](=O)[O-])c4)cc3)n2)cc1)c1cccc([N+](=O)[O-])c1 | 5.91
* O=C1NCCN1CCNS(=O)(=O)c1cc(C(F)(F)F)cc(C(F)(F)F)c1 | 6.10
* Clc1ccc2c(N3CCC(n4cccc4)CC3)ccnc2c1 | 5.98
* Oc1ccccc1Nc1nc(NC2CCCC2)c2ccccc2n1 | 6.06

###

# Test system: Plasmodium falciparum
# procedureText: NOVARTIS: Inhibition of Plasmodium falciparum W2 (drug-resistant) proliferation in erythrocyte-based infection assay
# Assay type: functional, organism-based
# experimentalParameters: Plasmodium falciparum, W2; read-out: EC50
pEC50: −log10 of the molar value.
reportedMetric: pEC50

• CCOC(=O)C1=C(C)N/C(=C\c2cc(C)n(-c3cccc(Br)c3)c2C)C1=O = < 6.03
• O=C1NC(=S)N/C1=C/c1cccc(Oc2ccccc2)c1 = < 6.72
• COCCNC(=O)CN1C(=O)CC(C)(C)Sc2ccccc21 = < 7.70

###

# Test system: Plasmodium falciparum
# procedureText: NOVARTIS: Inhibition of Plasmodium falciparum 3D7 (drug-susceptible) proliferation in erythrocyte-based infection assay
# Assay type: functional, organism-based
# experimentalParameters: Plasmodium falciparum, 3D7
The entries below come with measured EC50 values attached.
reportedMetric: EC50

* O=C(NCCc1nc(-c2cccnc2)n[nH]1)C12CC3CC(CC(C3)C1)C2 | > 1250 nM
* Cn1c(=O)c2c(nc(N3CCN(C(=O)Nc4ccc(F)cc4F)CC3)n2C)n(C)c1=O | > 1250 nM
* O=[N+]([O-])c1ccc(C2OC3C(c4ccc(Cl)cc4)=Nc4ccccc4N3C2c2ccc([N+](=O)[O-])cc2)cc1 (configuration not stated) | > 1250 nM
* COc1ccc(C2C(C(=O)NCCN(C)C)c3ccccc3C(=O)N2C2CCCCC2)cc1 (configuration not stated) | > 427 nM
* O=C(Nc1ccc(-c2cn3cccnc3n2)cc1)c1ccccc1I | > 12500 nM
* CCOC(=O)c1sc2ncnc(NCc3ccc(F)cc3)c2c1C | > 12500 nM
* COc1ccc(C=Cc2ccc3ccccc3[n+]2C)cc1 | > 5370 nM
* Cc1ccc(C)c(NC(=O)C2CCCN(c3nnc(N4CCCC4=O)s3)C2)c1 (configuration not stated) | > 5750 nM
* CC(C)N1CC[C@@H](N2CCN(c3cccc(C(F)(F)F)c3)CC2)[C@@H](CCC(=O)N(C)C2CCN(C)CC2)C1 | > 1040 nM
* Nc1ccc(-c2nc(-c3ccc(N)cc3)c3ccccc3n2)cc1 | > 1250 nM
* O=C(NCc1ccccc1)C(c1ccc(F)cc1)N(Cc1ccco1)C(=O)c1cnccn1 (configuration not stated) | > 8940 nM
* CCC(=O)N1CCOc2c(cc(-c3csc4ccccc34)cc2OCCc2ccccn2)C1 | > 1620 nM

###

# procedureText: NOVARTIS: Cytotoxicity against human hepatocellular carcinoma cell line (Huh7)
# Format: toxicity, cell-based, Huh-7
# experimentalParameters: Huh7 cells (hepatocellular carcinoma cell line)
The entries below come with measured CC50 values attached.
reportedMetric: CC50

- COc1ccc(C2=C(c3ccc(OC)cc3)C3C(=O)C2C2C(=O)N(c4cccc5ccccc45)C(=O)C32)cc1 (stereo unspecified): > 10 µM
- CCOc1ccc(C2C(C(=O)OCCc3ccccc3)=C(C)NC3=C2C(=O)CC(C)(C)C3)cc1 (stereo unspecified): > 100 µM
- O=c1cccc2n1CC1CC2CN(Cc2cccc(O)c2)C1 (stereo unspecified): > 100 µM
- CCCC(c1nnnn1C1CCCCC1)N1CCN(C(=O)c2ccco2)CC1 (stereo unspecified): > 100 µM
- CCC(C(=O)NCc1ccc(OC)c(OC)c1)n1nc(C)c2c(C)n(-c3ccc(C)cc3)nc2c1=O (stereo unspecified): > 100 µM
- O=C(CSc1nc2cc3c(cc2c(=O)n1Cc1ccco1)OCO3)Nc1cc(C(F)(F)F)ccc1Cl: > 100 µM

###

# Tested on: Plasmodium falciparum
# procedureText: NOVARTIS: Inhibition of Plasmodium falciparum 3D7 (drug-susceptible) proliferation in erythrocyte-based infection assay
# Type: functional, organism-based
# experimentalParameters: Plasmodium falciparum, 3D7
pEC50: −log10 of the molar value.
reportedMetric: pEC50

* CO/C(=C\C(N)=O)C(C)C(/C=C/c1csc(-c2csc(C(C)/C=C/C=C/C(C)C)n2)n1)OC (configuration not stated) | 5.91
* Cc1cc(Nc2ccc(O)cc2)nc2cccc(O)c12 | 6.33
* CCCc1nc2ccc(NC(=O)c3ccco3)cc2c(=O)n1Cc1ccc(-c2ccccc2)cc1 | 6.58
* Cc1oc2c(c1C(=O)N1CCN(C)CC1)C(=O)c1ccccc1C2=O | 6.08
* Cc1cc(C)c(CSC(=N)N)c(C)c1CSC(=N)N | 5.95
* COc1ccc(C2C(C(=O)Nc3cc(C)on3)c3ccccc3C(=O)N2C2CCCCC2)cc1 (configuration not stated) | 6.05

###

# Test system: Plasmodium falciparum
# procedureText: NOVARTIS: Inhibition of Plasmodium falciparum W2 (drug-resistant) proliferation in erythrocyte-based infection assay
# Format: functional, organism-based
# experimentalParameters: Plasmodium falciparum, W2; read-out: EC50
The entries below come with measured EC50 values attached.
reportedMetric: EC50

• CN(CCCNc1ccnc2cc(Cl)ccc12)C(=O)c1ccc(-c2ccccc2)cc1 = < 15.6 nM
• O=C(Nc1ccccc1Cl)C1CCCN1C(=O)OCc1ccccc1 (stereo not given) = > 929 nM
• O=C(CSc1nnc2c(n1)[nH]c1ccccc12)Nc1ccc([N+](=O)[O-])cc1 = > 12500 nM
• CCOC(=O)c1cnc2cc(OCC3CC3)c(OCC3CC3)cc2c1O = < 0.0706 nM
• CC1(C)CC(=O)c2cc(-c3ccc(Br)cc3)n(-c3ccccc3F)c2C1 = > 1250 nM

###

# System: Plasmodium falciparum
# procedureText: NOVARTIS: Inhibition of Plasmodium falciparum 3D7 (drug-susceptible) proliferation in erythrocyte-based infection assay
# Type: functional, organism-based
# experimentalParameters: Plasmodium falciparum, 3D7
reportedMetric: log10(EC50) (log10 of the value in nM)

- CC(C)(C)OC(=O)N1CCC(c2c(C(=O)Nc3cccc(C(F)(F)F)c3)cnn2-c2ccc(F)cc2F)CC1: 3.10
- Nc1nc(N)c2cc(S(=O)(=O)N3CCOCC3)ccc2n1: 1.80
- COc1ccccc1NC1=C(N2CCCCC2)C(=O)c2ccccc2C1=O: 1.45
- COc1ccc(-n2nc(C(C)(C)C)cc2NC(=O)CN(C(=O)c2ccc(C)c([N+](=O)[O-])c2)C(C)C)cc1: 3.19
- O=C1C2C(C(=O)N1Cc1ccccc1)C1(c3ccccc3)C(=O)C2(c2ccccc2)C(c2ccccc2)=C1c1ccccc1 (stereo not drawn): 2.91
- CC(=O)Nc1ccc(N2C(=O)CSC2c2ccc(Br)cc2)cc1 (stereo not drawn): 3.37
- Oc1cccc2ccc[n+](CC(O)Cn3c4ccccc4c4ccccc43)c12 (stereo not drawn): 2.30

###

The entries below come with measured pEC50 values attached.
# Test system: Plasmodium falciparum
# procedureText: NOVARTIS: Inhibition of Plasmodium falciparum W2 (drug-resistant) proliferation in erythrocyte-based infection assay
# Assay type: functional, organism-based
# experimentalParameters: Plasmodium falciparum, W2; read-out: EC50
pEC50: −log10 of the molar value.
reportedMetric: pEC50

- CCCCOc1ccc(C(O)C(CN2CCCCC2)c2ccccc2)cc1 (stereo not given): 6.23
- CC(=O)c1cc(CN2CCC(C(=O)Nc3ccc(-n4nc(C)cc4C)cc3)CC2)cs1: 6.18
- CC1CCCN(c2ccc(C(=O)NC3CC3)cc2[N+](=O)[O-])C1 (stereo not given): 5.84
- COc1cc(/C=C/C(=O)Nc2ccc3nc(N4CCN(c5ncccn5)CC4)cc(C)c3c2)cc(OC)c1OC: 6.13
- O=C1C(Nc2ccc(O)cc2)=CC(=NS(=O)(=O)c2cccs2)c2ccccc21: 6.53
- Cc1cc(C)cc(-n2c(C)cc(/C=C3/SC(=Nc4ccc(Br)cc4)NC3=O)c2C)c1: 6.23
- CCCCCCN(C(=O)c1cccc(C(F)(F)F)c1)C(CC)c1nc2ccccc2c(=O)n1-c1ccccc1OC (stereo not given): 6.10
- CN(C)CCNC(=O)COc1ccc(-c2nc3ccccc3s2)cc1CN(C)C: 6.25
- CCCNC1=C(N(C(C)=O)c2cccc(F)c2)C(=O)c2ccccc2C1=O: 7.55
- CC[n+]1c(/C=C/N(C)c2ccccc2)sc(-c2ccccc2)c1-c1ccccc1: 6.20
- COc1ccc(-n2nc(C(=O)NCC(=O)NCCCN3CC(C)CC(C)C3)c3ccccc3c2=O)cc1Cl (stereo not given): 5.73
- COc1cc2c(O[C@@H]3O[C@H](CO)[C@@H](O)[C@H](O)[C@H]3O)c3c(c(-c4ccc5c(c4)OCO5)c2cc1OC)C(=O)OC3: 6.92
- Cc1cccc(NC(=S)NC2CC3CCCC(C2)N3CCc2ccccc2)c1 (stereo not given): 6.04
